Test system: SW-620
Assay: NCI tumour cell line growth inhibition, 48 h
Activity calls are given as the source filed them. Rule as the data show it: active = GI50 up to about 1.1 µM and inactive = higher.
Reported GI50 values for the following compounds.
measurement_label: GI50

# compound, measurement_label, recorded_value
rows = [
    ("S=C1c2ccc(Cl)cc2-n2cnnc2C2CSCN12 (stereo not drawn)", "GI50", "> 100 µM (inactive)"),
    ("Cc1cc2c3c([nH]c2c2ccnc(C)c12)CCCC3", "GI50", "1.91 µM (inactive)"),
    ("NCC1OC(n2cnc3c(=O)[nH]c(N)nc32)C(O)C1O (stereo not drawn)", "GI50", "> 100 µM (inactive)"),
]

###

Tested on: HCT-116
Experiment: NCI tumour cell line growth inhibition, 48 h
Active and inactive are the calls of the source. Rule as the data show it: active = GI50 up to about 1.1 µM and inactive = higher.
Possible outcomes: active, inactive

# compound, label
records = [
    ("O=c1[nH]c(-c2ccc(Cl)cc2)cc2ccsc12", "inactive"),
    ("CCOC(=O)NC(=O)c1cn(CCOCCOC(=O)NCCCCCCNC(=O)OCCOCCn2cc(C(=O)NC(=O)OCC)c(=O)[nH]c2=O)c(=O)[nH]c1=O", "inactive"),
    ("CCOC(=O)C1=C(NC)OC/C1=N\\NC(=O)c1ccccc1O", "inactive"),
    ("CC(=O)NCCSC(=O)c1ccccc1", "active"),
    ("Cn1c(Sc2ccc(-c3cccnc3)n2C)ccc1-c1cccnc1", "inactive"),
]

###

Tested on: SF-295
Assay: NCI tumour cell line growth inhibition, 48 h
Active and inactive are the calls of the source. No stated cut-off is given here; in the data, active = GI50 up to about 1.1 µM and inactive = higher.
Reported GI50 values for the following compounds.

# compound, GI50
records = [
    ("CCOC(=O)c1cc2c([N+](=O)[O-])c(N)ccc2s1", "> 100 µM (inactive)"),
    ("C=C1C(=O)O[C@H]2C1C[C@@H](O)/C(C)=C/CC[C@@]1(C)O[C@H]21 (stereo partly specified)", "> 55.1 µM (inactive)"),
    ("COc1c(CC(C)=O)ccc2c1C(=O)c1ccc(C=O)c(OC(C)=O)c1C2=O", "21.2 µM (inactive)"),
    ("Cc1cccc(NC(=S)Nc2ccccc2Cl)n1", "32 µM (inactive)"),
    ("Cc1cc(N(CCC#N)S(=O)(=O)c2ccccc2)ccc1/C=N/c1ccc(C(=O)O)cc1", "29.1 µM (inactive)"),
    ("C=C(C)c1nc(Oc2ccccc2)nc(Oc2ccccc2)n1", "14.9 µM (inactive)"),
    ("Brc1ccc2c(c1)C1=C(CO2)Cc2ccccc2O1", "18.1 µM (inactive)"),
    ("COc1cc2c[n+](C)c3c4ccccc4ccc3c2cc1OC", "16.9 µM (inactive)"),
    ("CNS(=O)(=O)NNS(=O)(=O)c1ccccc1", "> 100 µM (inactive)"),
    ("CN1C(OCc2ccccc2)c2c(ccc3c2OCO3)C2C=Cc3cc4c(cc3C21)OCO4 (stereo unspecified)", "1.47 µM (inactive)"),
    ("OC[C@H]1O[C@@H](n2cnc3cncnc32)[C@H](O)[C@@H]1O [NEBULARINE]", "2 µM (inactive)"),
]

###

Tested on: NCI/ADR-RES
Assay: NCI tumour cell line growth inhibition, 48 h
The source made the active and inactive calls. Cut-off read from the data, not from the text of the source: active = GI50 up to about 1.1 µM and inactive = higher. Positions of bridges follow the written chain, without caps; N, C: chain ends. Residues, ends and D or L forms follow the SMILES beside them.
Possible outcomes: True for active, False for inactive

# compound, label
records = [
    ("ClCCCc1ccccc1C1=NCCc2ccccc21", "False"),
    ("COc1cc(C(c2cccc3ccccc23)N2C(=O)CCC2C(=O)O)cc(OC)c1OC (centres undefined)", "False"),
    ("CC1=CC(c2ccccc2)OP1(=O)c1ccccc1 (centres undefined)", "False"),
    ("CNC(=O)Nc1nc2cc([N+](=O)[O-])ccc2[nH]1", "False"),
    ("COc1cc([C@@H]2c3cc4c(cc3[C@@H](NC(=O)NO)[C@H]3COC(=O)[C@H]23)OCO4)cc(OC)c1O", "False"),
    ("O=[N+]([O-])c1cccc2nc3ccccc3c(NCCCn3ccnc3[N+](=O)[O-])c12", "True"),
    ("C=C(C)c1nc(Oc2ccccc2)nc(Oc2ccccc2)n1", "False"),
    ("CCOC(=O)c1nc2ccccc2nc1NCc1cc(OC)c(OC)c(OC)c1", "False"),
    ("COC(=O)C1CCC(=O)NCCCCC(NC(=O)C(N)CC(=O)O)C(=O)N1 (stereo not drawn) (H-Asp-Lys-Glu-OMe; lactam 2-3; configuration not given here)", "False"),
    ("CCCOc1ccc2sc(NC(=O)c3cc([N+](=O)[O-])cc([N+](=O)[O-])c3)nc2c1", "False"),
    ("N#Cc1c(-c2ccccc2)c(C=O)c(=O)n2c1[nH]c1ccccc12", "False"),
    ("O=c1c2nn3c(=O)n(-c4ccccc4)c(=O)c3nn2c(=O)n1-c1ccccc1", "False"),
    ("C=C1CC(Cn2cc(Br)c(=O)[nH]c2=O)(c2ccc(-c3ccccc3)cc2)OC1=O (centres undefined)", "False"),
    ("C/C1=C\\[C@H](C)C[C@H](C)OC(=O)C[C@H](c2ccc(O)cc2)NC(=O)[C@H](Cc2ccc(O)c(I)c2)N(C)C(=O)[C@H](C)NC(=O)[C@@H](C)C1", "True"),
    ("Nc1ccc(C(=O)Nc2ccccc2N)cc1 [DINALINE]", "False"),
    ("Cc1cc(C)nc(NC(=O)COc2ccc(Cl)cc2)c1", "False"),
    ("CC(=O)OC1CC[C@@]2(C)C(C1)CC(OC(C)=O)[C@@H]1C2CC(OC(C)=O)[C@]2(C)C(C(C)CC=C(c3ccc(Cl)cc3)c3ccc(Cl)cc3)CCC12 (some centres undefined)", "False"),
    ("CCOC(=O)NC(Nc1ncccn1)(C(=O)OCC)C(F)(F)F (centres undefined)", "False"),
    ("CC(=O)NCCSC(=O)c1ccccc1", "True"),
]

###

Test system: SR
Experiment: NCI tumour cell line growth inhibition, 48 h
Activity calls are given as the source filed them. No stated cut-off is given here; in the data, active = GI50 up to about 1.1 µM and inactive = higher.
Possible outcomes: YES for active, NO for inactive

# compound, label
measured = [
    ("O=C1CCC2(c3ccc(Cl)cc3)Nc3cc(Cl)ccc3N12 (stereo not drawn)", "NO"),
    ("COC(=O)C1=C(O)C(C(=O)OC)[C@]2(O)[C@H](C(=O)OC)[C@H]1C[C@@H](c1ccc(O)cc1)[C@H]2C(=O)OC (stereo partly drawn)", "NO"),
    ("CCN(CC)c1nc(N(C)C)c2cc(OC)ccc2n1", "NO"),
    ("CCCC(C)n1c(C)nc2c1C(=O)c1ccccc1C2=O (stereo not drawn)", "NO"),
    ("CC1=CC(c2ccccc2)OP1(=O)c1ccccc1 (stereo not drawn)", "NO"),
    ("COC(=O)c1ccc(Cl)cc1NC(=O)C1CCCCC1", "NO"),
    ("O=C1/C(=C/c2ccc(O)cc2)CCC1CNc1ccccc1 (stereo not drawn)", "NO"),
    ("O=C1OC2C(O)C(=O)OC2C1O (stereo not drawn)", "NO"),
    ("OCCN(CCO)CCn1cnc2c(NCc3ccccc3)ncnc21", "NO"),
    ("CNC(=O)Nc1nc2cc([N+](=O)[O-])ccc2[nH]1", "NO"),
    ("COc1cc(-c2cn(S(=O)(=O)c3ccc(C)cc3)c3ccccc23)nc(-c2cn(S(=O)(=O)c3ccc(C)cc3)c3ccccc23)n1", "YES"),
    ("COC(=O)CCC(NC(=S)N/N=C(\\C)c1ccccn1)C(=O)OC (stereo not drawn)", "NO"),
    ("O=C1CC[C@@]2(O)[C@H]3Cc4ccc(-c5ccccc5)c5c4[C@@]2(CCN3CC2CC2)[C@H]1O5", "NO"),
    ("O=C(CNc1ccccc1C(=O)O)Nn1cnc2ccc(S(=O)(=O)Nc3ccccc3C(=O)O)cc2c1=O", "NO"),
    ("COc1ccc(/C(Br)=C2\\OC(=O)c3ccccc32)cc1", "NO"),
    ("COc1ccc(C[C@@H]2CN(C(=O)c3ccccc3)[C@H](Cc3ccc(O)cc3)CN2C(=O)c2ccccc2)cc1Br", "NO"),
    ("O/N=C(\\CC(O)(C(F)(F)F)C(F)(F)F)c1cccc(Cl)c1", "NO"),
    ("N#Cc1c(N)n(C2OC(CO)C(O)C2O)c2ncnc(N)c12 (stereo not drawn)", "YES"),
]

###

System: UACC-62
Assay: NCI tumour cell line growth inhibition, 48 h
Activity calls are given as the source filed them. No stated cut-off is given here; in the data, active = GI50 up to about 1.1 µM and inactive = higher.
measurement_label: GI50

# molecule, measurement_label, recorded_value
records = [
    ("C=C(CCCCC)CN1CCCC1[C@@](C)(O)CC(=O)OCC (stereo not given in full)", "GI50", "> 100 µM (inactive)"),
    ("COc1ccc(OC)c(/N=C/c2cc(OC)c(OC)c(OC)c2)c1", "GI50", "> 100 µM (inactive)"),
    ("CCCCNC(=O)CCN(C(=O)O)S(=O)(=O)c1ccc(NC(=O)c2ccccc2)cc1", "GI50", "> 100 µM (inactive)"),
    ("COC(=O)CNC(=O)/C=C/[C@H](O[Si](C)(C)C(C)(C)C)[C@H](/C=C/C(=O)NCC(=O)OC)O[Si](C)(C)C(C)(C)C", "GI50", "> 25 µM (inactive)"),
    ("Cc1ccc(S(=O)(=O)OCOS(=O)(=O)c2ccc(C)cc2)cc1", "GI50", "> 10 µM (inactive)"),
]

Where do the numbers come from? From ChEMBL document CHEMBL1201862.
